Source listed as BindingDB's records for doi:10.1021/acs.jmedchem.0c00870.

Provide the recorded pIC50 for the entries that follow.
# ASSAY: Inhibiton of EGFR (unknown origin) expressed in human A431 cells assessed as reduction in EGFR induced cell viability after 96 hrs by CellTiter-Glo assay
Give bare numbers, as −log10 of the molar value.

C=CC(=O)Nc1cccc(-c2c[nH]c3ncnc(Nc4ccc(OCc5ccccn5)c(Cl)c4)c23)c1	5.78
C=CC(=O)Nc1cc(-c2c[nH]c3ncnc(Nc4ccc5c(cnn5Cc5ccccc5)c4)c23)ccc1OCCO	5.65
C=CC(=O)Nc1cccc(-c2c[nH]c3ncnc(Nc4ccc(CN5C(=O)c6ccccc6C5=O)cc4)c23)c1	5.80

Prompt: # query: pIC50 of entry C=CC(=O)Nc1cc(-c2c[nH]c3ncnc(Nc4ccc(OCc5ccccn5)c(Cl)c4)c23)ccc1OCCN(C)C
Response: 6.06
